# koff per entry
target_under_test: T1, Cyno ST2-fc (cyno; human, UniProt A0A2K5UDB8 19-331)
T1 construct: also called cyno ST2 fused with a human IgG1 Fc tag at the C-terminus
T1 sequence: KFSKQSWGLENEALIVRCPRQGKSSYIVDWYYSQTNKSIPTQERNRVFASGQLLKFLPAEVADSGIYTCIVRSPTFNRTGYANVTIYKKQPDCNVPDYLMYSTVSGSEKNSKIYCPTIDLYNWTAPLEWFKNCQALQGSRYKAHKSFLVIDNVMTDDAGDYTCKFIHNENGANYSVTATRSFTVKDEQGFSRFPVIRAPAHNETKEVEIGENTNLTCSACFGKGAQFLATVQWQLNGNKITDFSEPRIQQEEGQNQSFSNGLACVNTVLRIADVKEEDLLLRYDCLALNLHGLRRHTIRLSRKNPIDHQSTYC
test_name: SPR Biacore X100, antibody on CM5, cyno ST2-fc analyte

{"binder": "5888-379H1+L2 (antibody, V domains shown, murine antibody) VH: QIQLAQSGPELKKPGETVKISCKASGYTFINYGMNWVKQAPGKDLKWMGWINTYIGEPTYGDNFKGRFAFSLETSASTVYLQINNLKNEDTATYFCAREGDGFAYWGQGTLVTVSA VL: DIVMTQSPPSLSVSVGEKVTMSCKSSQSLLYSGNQNNYLAWYQQKPGQPPKLLIYGASTRESGVPDRFTGSGSGTDFTLTISSVQAEDLAVYYCQNDHSYPYTFGGGTKLEIK", "readout_unit": "s⁻¹", "koff": 0.000152}
{"binder": "5888-357H+L (antibody, V domains shown, murine antibody) VH: QVQLQQSVTELVRPGASVTLSCKASGYRFTDSEMHWVKQTPVHGLEWIGTIDPETGGTVYNQKFKGKAKLTADRSSSTVSMELRSLTSEDSAVYYCTRAFYNDFDDGFAYWGQGTLVTVSA VL: QIVMTQSPAIMSASPGEKVTLTCSASTSVSYMHWYQQKSGTSPKRWIYDTSKLASGVPARFSGSGSGTSYSLTISSMEAEDAATYYCQQWSSNPLTFGAGTKLELK", "readout_unit": "s⁻¹", "koff": 0.000826}
{"binder": "5887-537H3+L1 (antibody, V domains shown, murine antibody; also called 5887-537H3H+L1) VH: QVTLKESGPGILQPSQTLSLTCSFSGFSLSTSGMGVGWIRQPSGKGLEWLAHIWWDDVKQYNPALKSRLTISKDTSSSQVFLKSASVDTADTATYYCARIGGDYDYFDFWGQGTTLTVSS VL: DIVLTQSPASLAVSLGQRATISCRASESVEYSGTSLMQWYQQKPGQPPKLLIYVASNVESGVPARFSGSGSGTDFSLNIHPVEEDDIAMYFCQQSRKVPWTFGGGTKLEIK", "readout_unit": "s⁻¹", "koff": 0.000511}
